The following molecules are listed with their measured EC50 values.
# target under test: ABCA4 P1380L (Homo sapiens, UniProt P78363, P1380L)
# Construct: expressed in transfected cells
# Sequence (P78363 whole entry P1380L): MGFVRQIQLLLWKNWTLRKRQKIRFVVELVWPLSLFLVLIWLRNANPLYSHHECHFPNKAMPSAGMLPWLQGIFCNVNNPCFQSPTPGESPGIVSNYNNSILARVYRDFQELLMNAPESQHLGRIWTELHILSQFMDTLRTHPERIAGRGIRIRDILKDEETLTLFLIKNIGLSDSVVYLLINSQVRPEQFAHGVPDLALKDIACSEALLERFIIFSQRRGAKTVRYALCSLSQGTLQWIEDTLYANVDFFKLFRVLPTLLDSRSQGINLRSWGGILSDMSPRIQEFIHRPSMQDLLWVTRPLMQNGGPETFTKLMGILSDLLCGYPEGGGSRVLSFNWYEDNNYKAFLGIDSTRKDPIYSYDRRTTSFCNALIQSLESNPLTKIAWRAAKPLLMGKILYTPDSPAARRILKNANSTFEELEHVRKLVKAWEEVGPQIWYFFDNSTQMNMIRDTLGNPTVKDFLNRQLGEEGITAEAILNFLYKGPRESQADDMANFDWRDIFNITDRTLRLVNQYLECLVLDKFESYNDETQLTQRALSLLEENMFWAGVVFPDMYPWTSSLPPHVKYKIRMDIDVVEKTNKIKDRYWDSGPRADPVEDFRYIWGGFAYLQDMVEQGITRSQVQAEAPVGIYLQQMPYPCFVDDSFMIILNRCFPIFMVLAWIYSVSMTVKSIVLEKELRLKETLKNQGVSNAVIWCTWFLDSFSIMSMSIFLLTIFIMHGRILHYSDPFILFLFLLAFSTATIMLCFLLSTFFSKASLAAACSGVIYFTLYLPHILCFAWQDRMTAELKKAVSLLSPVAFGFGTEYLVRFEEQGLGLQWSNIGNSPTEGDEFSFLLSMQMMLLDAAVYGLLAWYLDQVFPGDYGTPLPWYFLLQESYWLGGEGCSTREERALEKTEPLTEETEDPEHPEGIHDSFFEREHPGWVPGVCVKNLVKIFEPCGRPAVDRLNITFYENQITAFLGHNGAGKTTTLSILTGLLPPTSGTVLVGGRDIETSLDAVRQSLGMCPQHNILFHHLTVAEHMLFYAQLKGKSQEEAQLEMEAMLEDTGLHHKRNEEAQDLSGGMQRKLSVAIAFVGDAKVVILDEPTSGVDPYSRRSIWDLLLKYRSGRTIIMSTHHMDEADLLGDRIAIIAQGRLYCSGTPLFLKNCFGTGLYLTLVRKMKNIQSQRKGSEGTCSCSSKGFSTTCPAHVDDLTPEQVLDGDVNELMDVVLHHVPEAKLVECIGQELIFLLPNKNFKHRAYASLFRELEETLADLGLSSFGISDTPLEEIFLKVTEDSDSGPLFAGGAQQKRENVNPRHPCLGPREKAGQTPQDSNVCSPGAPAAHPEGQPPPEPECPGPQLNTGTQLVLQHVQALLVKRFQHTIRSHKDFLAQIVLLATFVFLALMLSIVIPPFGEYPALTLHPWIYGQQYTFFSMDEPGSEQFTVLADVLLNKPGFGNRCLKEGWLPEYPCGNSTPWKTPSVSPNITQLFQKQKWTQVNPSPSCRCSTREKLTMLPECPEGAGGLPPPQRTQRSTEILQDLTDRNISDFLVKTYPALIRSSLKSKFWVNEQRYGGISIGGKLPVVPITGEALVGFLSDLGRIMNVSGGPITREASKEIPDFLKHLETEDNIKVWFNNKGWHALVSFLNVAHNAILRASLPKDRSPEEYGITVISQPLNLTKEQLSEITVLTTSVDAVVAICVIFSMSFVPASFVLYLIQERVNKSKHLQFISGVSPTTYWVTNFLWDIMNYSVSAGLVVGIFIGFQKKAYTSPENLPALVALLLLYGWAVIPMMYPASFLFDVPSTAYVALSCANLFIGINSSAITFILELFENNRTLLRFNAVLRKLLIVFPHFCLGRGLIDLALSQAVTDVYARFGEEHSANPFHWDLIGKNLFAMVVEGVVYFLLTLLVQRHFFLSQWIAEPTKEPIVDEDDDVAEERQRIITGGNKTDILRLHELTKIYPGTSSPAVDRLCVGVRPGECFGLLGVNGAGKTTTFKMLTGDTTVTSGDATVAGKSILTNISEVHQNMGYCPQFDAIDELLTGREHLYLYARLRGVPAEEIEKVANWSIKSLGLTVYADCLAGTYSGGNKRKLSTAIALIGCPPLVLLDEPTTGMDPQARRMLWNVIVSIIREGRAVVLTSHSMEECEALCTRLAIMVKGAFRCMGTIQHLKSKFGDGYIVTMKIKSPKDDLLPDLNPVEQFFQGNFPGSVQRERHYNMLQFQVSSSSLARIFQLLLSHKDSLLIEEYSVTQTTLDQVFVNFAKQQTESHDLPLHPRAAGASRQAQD
# protocol summary: A4 correction dose-response assay: ABCA4 P1380L HiBit protein expression
# Assay type: cell-based
# details: HEK-293 cells stably expressing HiBit-tagged ABCA4 P1380L; 24 h treatment; top concentration 30 μM; read-out: ABCA4 P1380L EC50, Emax

Would you please look over these solved cases?
Cc1cc(C(F)(F)F)nc(C2CC2)c1Oc1nc(-c2cncc(C#N)c2)ccc1NS(C)(=O)=O: < 25000 nM
COc1nc(C)cc(C)c1Oc1nc(-c2cncc(C#N)c2)ccc1NS(C)(=O)=O: < 1000 nM

Reported EC50 for `CS(=O)(=O)Nc1ccc(-c2cncc(C#N)c2)nc1Oc1c(C2CC2)nc(C(F)(F)F)nc1C1CC1` was < 1000 nM

Reported EC50 for `Cc1cc(C)c(Oc2nc(-n3cc(C)cn3)ccc2NS(C)(=O)=O)c(C)c1` was > 25000 nM

---

# target under test: ABCC6 WT (Homo sapiens, UniProt O95255)
# Sequence (O95255 whole entry): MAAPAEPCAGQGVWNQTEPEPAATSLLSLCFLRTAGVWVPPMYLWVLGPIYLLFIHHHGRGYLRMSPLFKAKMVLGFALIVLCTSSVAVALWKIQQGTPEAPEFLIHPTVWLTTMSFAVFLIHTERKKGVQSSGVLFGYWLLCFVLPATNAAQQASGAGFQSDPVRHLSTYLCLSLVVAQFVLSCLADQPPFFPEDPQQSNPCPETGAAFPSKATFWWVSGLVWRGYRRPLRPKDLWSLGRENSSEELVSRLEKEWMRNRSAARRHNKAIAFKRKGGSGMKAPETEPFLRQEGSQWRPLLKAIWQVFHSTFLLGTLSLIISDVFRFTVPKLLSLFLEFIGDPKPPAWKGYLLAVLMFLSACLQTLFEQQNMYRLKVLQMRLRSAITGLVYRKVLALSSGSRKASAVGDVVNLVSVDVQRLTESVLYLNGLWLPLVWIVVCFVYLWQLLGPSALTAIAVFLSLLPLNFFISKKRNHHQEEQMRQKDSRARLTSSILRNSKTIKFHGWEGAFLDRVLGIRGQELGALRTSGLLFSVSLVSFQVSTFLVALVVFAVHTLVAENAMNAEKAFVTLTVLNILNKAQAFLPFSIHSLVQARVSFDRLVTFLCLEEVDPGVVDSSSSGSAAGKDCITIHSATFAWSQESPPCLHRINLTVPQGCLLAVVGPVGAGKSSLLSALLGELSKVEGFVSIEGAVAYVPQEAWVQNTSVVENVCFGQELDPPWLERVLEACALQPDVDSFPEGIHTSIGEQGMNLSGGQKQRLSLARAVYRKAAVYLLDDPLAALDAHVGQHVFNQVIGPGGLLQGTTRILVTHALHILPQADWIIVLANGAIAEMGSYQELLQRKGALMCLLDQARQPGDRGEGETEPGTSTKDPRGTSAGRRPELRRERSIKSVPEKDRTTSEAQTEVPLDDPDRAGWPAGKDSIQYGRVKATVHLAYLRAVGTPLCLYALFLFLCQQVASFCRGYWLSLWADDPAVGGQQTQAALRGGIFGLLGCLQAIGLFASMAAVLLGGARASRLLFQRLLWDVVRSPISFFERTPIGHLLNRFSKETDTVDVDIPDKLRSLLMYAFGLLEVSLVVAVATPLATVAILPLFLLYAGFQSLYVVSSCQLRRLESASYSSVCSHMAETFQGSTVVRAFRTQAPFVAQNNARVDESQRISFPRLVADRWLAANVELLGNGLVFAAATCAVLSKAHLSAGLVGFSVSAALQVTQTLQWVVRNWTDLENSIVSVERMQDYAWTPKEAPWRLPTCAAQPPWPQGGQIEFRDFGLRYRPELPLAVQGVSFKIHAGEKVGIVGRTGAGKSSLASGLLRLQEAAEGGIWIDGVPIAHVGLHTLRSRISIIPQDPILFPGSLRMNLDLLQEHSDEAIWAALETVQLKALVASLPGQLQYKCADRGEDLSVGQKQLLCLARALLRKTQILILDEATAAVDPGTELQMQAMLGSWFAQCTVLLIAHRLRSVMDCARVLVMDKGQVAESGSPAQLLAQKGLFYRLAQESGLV
# protocol summary: ABCC6 WT assay: HiBit protein expression
# details: HEK-293 cells transiently expressing HiBit-tagged ABCC6 WT; 24 h treatment; top concentration 20 μM; read-out: ABCC6 WT EC50, Emax
pEC50: −log10 of the molar value.
metric: pEC50

Would you please look over these solved cases?
Cc1nc(C(F)F)nc(C2CC2)c1Oc1nc(-c2cncc(C#N)c2)ccc1NS(C)(=O)=O [Compound I-144]: > 6.00
Cc1cc(C)c(Oc2nc(-c3cncc(Cl)c3)ccc2N(C)S(C)(=O)=O)c(C)c1 [Compound I-48]: > 6.00
Cc1cc(C)c(Oc2nc(-c3ccc(C#N)nc3C)ccc2NS(C)(=O)=O)c(C)c1 [Compound I-6]: > 6.00
Cc1cc(C)c(Oc2cc(-c3cncc(Cl)c3)cnc2NS(=O)(=O)c2cnn(C)c2)c(C)c1 [Compound I-61]: 5.00 to 6.00
Cc1cc(C(F)(F)F)nc(C2CC2)c1Oc1nc(-c2cncc(C#N)c2)ccc1S(=O)(=O)NC1CCOCC1 [Compound I-306]: > 6.00
Cc1nc(C2CC2)cc(C2CC2)c1Oc1nc(-c2cncc(C#N)c2)ccc1NS(C)(=O)=O [Compound I-162]: > 6.00

Reported pEC50 for Cc1cc(C)c(Oc2nc(-c3cncc(Cl)c3)ccc2NS(=O)(=O)c2cnn(C)c2)c(C)c1 [Compound I-72] was 5.00 to 6.00

Reported pEC50 for Cc1cc(C)c(Oc2nc(-c3ccn(C)c(=O)c3)ccc2NS(C)(=O)=O)c(C)n1 [Compound I-186] was > 4.60

Reported pEC50 for Cc1cc(C)c(Oc2nc(-c3cncc(Cl)c3)ccc2S(=O)(=O)NCc2ccccc2)c(C)c1 [Compound I-88] was 5.00 to 6.00

Reported pEC50 for Cc1cnc(Oc2nc(-c3cncc(C#N)c3)ccc2NS(C)(=O)=O)c(C)c1 [Compound I-250] was ≤ 4.60

Reported pEC50 for Cc1cc(C)c(Oc2nc(-c3ccc(C#N)nc3)ccc2NS(C)(=O)=O)c(C)n1 [Compound I-7] was > 6.00

---

The following compounds are listed with their measured pEC50 values.
# target under test: ABCC6 WT (Homo sapiens)
# protocol summary: ABCC6 WT assay: HiBit protein expression
# details: HEK-293 cells transiently expressing HiBit-tagged ABCC6 WT; 24 h treatment; top concentration 20 μM; read-out: ABCC6 WT EC50, Emax
# Method: To assess activity against ABCC6, compounds were screened in an assay measuring protein expression, using cells transfected with cDNA encoding HiBit-tagged ABCC6 wild-type. […] Dose response curves include ten doses with the top final concentration at 20 μM in 0.15% DMSO. […] The plates are rotated at room temperature for 10 minutes and luminescent signal is acquired using an EnVision Multimode Plate Reader (PerkinElmer). […]
pEC50: −log10 of the molar value.

Cc1cc(C(F)(F)F)nc(C2CC2)c1Oc1nc(-c2cncc(C#N)c2)ccc1S(=N)(=O)c1ccccn1 (stereo not shown) [Compound I-302]: 4.60 to 5.00
Cc1cc(C)c(Oc2nc(-c3cncc(C#N)c3)ccc2NS(=O)(=O)C2COC2)c(C)n1 [Compound I-228]: > 6.00
Cc1cc(C)c(Oc2nc(N3CCN(C(=O)C4CCC4)CC3)ccc2NS(C)(=O)=O)c(C)c1 [Compound I-24]: > 6.00
Cc1cc(C(F)F)nc(C2CC2)c1Oc1nc(-c2cncc(C#N)c2)ccc1S(=O)(=O)NC1CCOCC1 [Compound I-320]: 5.00 to 6.00

Reported pEC50 for COC(=O)N1CCN(c2ccc(NS(C)(=O)=O)c(Oc3c(C)cc(C)cc3C)n2)CC1 [Compound I-16] was 5.00 to 6.00

Reported pEC50 for Cc1cc(C)c(Oc2nc(-c3cc[nH]c(=O)c3)ccc2NS(C)(=O)=O)c(C)n1 [Compound I-187] was ≤ 4.60

Reported pEC50 for Cc1cc(C)c(Oc2nc(-c3cncc(C#N)c3)ccc2NS(C)(=O)=O)c(C2CC2)n1 [Compound I-268] was > 6.00

Reported pEC50 for CNS(=O)(=O)c1ccc(-c2cncc(C#N)c2)nc1Oc1c(C)cc(C)nc1C [Compound I-265] was 5.00 to 6.00

Reported pEC50 for Cc1cc(C)c(Oc2nc(-c3cncc(Cl)c3)ccc2S(=O)(=O)NCc2ccccn2)c(C)c1 [Compound I-86] was 5.00 to 6.00

Reported pEC50 for Cc1cc(C2CCC2)nc(C)c1Oc1nc(-c2cncc(C#N)c2)ccc1NS(C)(=O)=O [Compound I-208] was > 6.00

Reported pEC50 for Cc1nc(C(F)(F)F)cc(C2CC2)c1Oc1nc(-c2cncc(C#N)c2)ccc1N(C)S(C)(=O)=O [Compound I-154] was > 4.60

Reported pEC50 for Cc1ccc(Oc2nc(-c3cncc(C#N)c3)ccc2NS(C)(=O)=O)c(C)n1 [Compound I-3] was > 6.00

Reported pEC50 for Cc1cc(C)c(Oc2nc(-c3cncc(C#N)c3)ccc2NS(C)(=O)=O)c(C)n1 [Compound I-5] was > 6.00

Reported pEC50 for Cc1cc(C)c(Oc2nc(N3CCN(S(C)(=O)=O)CC3)ccc2NS(C)(=O)=O)c(C)c1 [Compound I-26] was ≤ 4.60

Reported pEC50 for Cc1cc(C)c(Oc2nc(N3CCN(C(=O)C(C)(C)C)CC3)ccc2NS(C)(=O)=O)c(C)c1 [Compound I-34] was 5.00 to 6.00

Reported pEC50 for Cc1cc(C)c(Oc2nc(-c3cncc(Cl)c3)ccc2S(=O)(=O)NCc2ccccn2)c(C2CC2)c1 [Compound I-76] was ≤ 4.60

---

The following compounds are listed with their measured EC50 values.
# target under test: ABCD2 WT (Homo sapiens)
# Sequence (Q9UBJ2 whole entry): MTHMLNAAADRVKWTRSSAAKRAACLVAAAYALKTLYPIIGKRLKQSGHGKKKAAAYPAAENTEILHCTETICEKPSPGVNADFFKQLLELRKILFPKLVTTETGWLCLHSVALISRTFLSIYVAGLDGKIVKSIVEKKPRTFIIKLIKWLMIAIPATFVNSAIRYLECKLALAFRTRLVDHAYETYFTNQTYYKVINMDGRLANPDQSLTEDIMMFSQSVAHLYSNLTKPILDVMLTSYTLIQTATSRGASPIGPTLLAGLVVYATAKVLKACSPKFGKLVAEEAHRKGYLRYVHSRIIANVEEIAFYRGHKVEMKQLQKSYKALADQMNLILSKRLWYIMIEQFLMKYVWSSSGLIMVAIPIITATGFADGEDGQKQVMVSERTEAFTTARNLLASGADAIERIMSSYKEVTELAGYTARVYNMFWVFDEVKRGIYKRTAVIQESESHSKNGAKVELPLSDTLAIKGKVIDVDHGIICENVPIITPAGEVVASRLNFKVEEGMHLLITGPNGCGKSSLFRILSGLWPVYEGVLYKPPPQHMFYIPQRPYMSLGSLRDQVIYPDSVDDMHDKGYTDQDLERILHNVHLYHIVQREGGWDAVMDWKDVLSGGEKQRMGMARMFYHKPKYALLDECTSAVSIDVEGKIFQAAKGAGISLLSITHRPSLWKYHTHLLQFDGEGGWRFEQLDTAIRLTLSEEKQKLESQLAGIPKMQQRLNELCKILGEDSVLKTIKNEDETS
# protocol summary: D2 correction dose-response assay: ABCD2 WT HiBit protein expression
# details: HEK-293/ABCD2 WT cells, 24 hours treatment, HiBit luminescence; class combines EC50 and Mean MaxAct (fold); read-out: ABCD2 WT EC50, Emax

Would you please look over these solved cases?
Cc1cc(C)c(Oc2nc(-c3cncc(C(N)=O)c3)ccc2NS(C)(=O)=O)c(C2CC2)n1: 1 to 10 µM
Cc1cc(C)c(Oc2nc(-c3cncc(Cl)c3)ccc2S(=O)(=O)NCc2cc(C(F)(F)F)ccn2)c(C)c1: > 25 µM
Cc1cc(C)c(Oc2nc(-c3ccnc(C#N)c3)ccc2NS(=O)(=O)C2CC2)c(C)n1: < 1 µM

Reported EC50 for `Cc1cc(C)c(Oc2nc(-c3cncc(Cl)c3)ccc2S(=O)(=O)NC2CC2)c(C)c1` was < 1 µM

---

The following molecules are listed with their measured pEC50 values.
# target under test: UniProtKB Q9UBJ2
# protocol summary: D2 correction dose-response assay: ABCD2 WT HiBit protein expression
# details: HEK-293/ABCD2 WT cells, 24 hours treatment, HiBit luminescence; class combines EC50 and Mean MaxAct (fold); read-out: ABCD2 WT EC50, Emax
pEC50: −log10 of the molar value.

Would you please look over these solved cases?
Cc1nc(C2CC2)nc(C)c1Oc1nc(-c2cncc(C#N)c2)ccc1NS(C)(=O)=O: > 6.00
Cc1nc(C(F)(F)F)nc(C2CC2)c1Oc1nc(-c2cncc(Cl)c2)ccc1N(C)S(C)(=O)=O: < 4.60
CNS(=O)(=O)c1ccc(-c2cncc(C#N)c2)nc1Oc1c(C)nc(C(F)(F)F)nc1C1CC1: 4.60 to 5.00
Cc1cc(C2CC2)nc(C)c1Oc1nc(-c2cncc(C#N)c2)ccc1NS(=O)(=O)C1CCC1: 5.00 to 6.00
Cc1cc(C(F)F)nc(C2CC2)c1Oc1nc(-c2cncc(C#N)c2)ccc1N(C)S(C)(=O)=O: 5.00 to 6.00
Cc1cc(C)c(Oc2nc(-c3cc(Cl)cnc3C)ccc2NS(C)(=O)=O)c(C)n1: 5.00 to 6.00
CC(=O)NC1CN(c2ccc(NS(=O)(=O)c3cccnc3)c(Oc3c(C)cc(C)cc3C3CC3)n2)C1: < 4.60
Cc1cc(C)c(Oc2nc(-c3cncc(Cl)c3)ccc2NS(=O)(=O)Cc2ccccn2)c(C)c1: > 6.00
Cc1cc(Oc2nc(-c3cncc(C#N)c3)ccc2NS(C)(=O)=O)c(C)nc1C: > 6.00
Cc1nn(C)c(C)c1Oc1nc(-c2cncc(C#N)c2)ccc1NS(C)(=O)=O: > 6.00

Reported pEC50 for `Cc1cc(C(F)F)nc(C2CC2)c1Oc1nc(-c2cncc(C#N)c2)ccc1S(=O)(=O)NC1COC1` was 5.00 to 6.00

Reported pEC50 for `Cc1cc(C)c(Oc2nc(-c3cncc(CO)c3)ccc2NS(C)(=O)=O)c(C)n1` was 5.00 to 6.00
